Origin of measurements: PubChem BioAssay (NCI)

Reported growth by item:
Test system: SK-OV-3 ovarian
Assay: NCI-60 one-dose screen, 48 h (100 = growth as untreated, 0 = no growth, -100 = all killed)
Conditions: 10 µM unless noted
About 83,000 compounds went through this panel and 20% of them were active in at least one assay; those are over-represented in the sample as a whole.
Give just the numeric value; % need not be written.

Below, 3 molecules whose answers are already recorded.
| molecule | growth [%] |
| --- | --- |
| Cc1ccc(C(C)C)cc1NC(=O)Nc1ccc([N+](=O)[O-])cc1 | 7.01 |
| Nc1ccc2c(c1)/C(=N/O)c1cc([N+](=O)[O-])ccc1-2 | 81.6 |
| Cc1nn(-c2ccc(Cl)cc2)c2nc3c(nc12)C(=O)c1ccccc1-3 | 32.7 |

**Query** Return reported growth; argument: CC12CCCCC1C(C(N)=O)C(=O)O2 (configuration not stated)
**Result** 107

====

Tested on: HT29 colon
Assay: NCI-60 one-dose screen, 48 h (100 = growth as untreated, 0 = no growth, -100 = all killed)
Settings: 10 µM unless noted
About 83,000 compounds went through this panel and 20% of them were active in at least one assay; those are over-represented in the sample as a whole. Activity calls are given as the source filed them. How the source made its calls: active means growth percent below 10; inactive means the rest.
Listed here are molecules together with their documented growth.

| molecule | growth |
| --- | --- |
| CC(c1cc(Cl)ccc1O)c1cc(Cl)ccc1O | 2.77% (active) |

**Query** # growth lookup, item COc1cc(-c2cc(C(=O)Nc3nc4ccccc4s3)nc3cc(-c4ccccc4)nn23)cc(OC)c1OC
**Result** 17.4% (inactive)

**Query** Any idea what growth was measured for CCCCC1Nc2nc(SC)n(C)c(=O)c2CN(Cc2ccccc2)C1=O (stereo not given) ?
**Result** 105% (inactive)

**Query** I am curious: what growth value has been reported for C=C1CC[C@@H]2[C@](C)(COC(C)=O)[C@H](OC(C)=O)CC[C@@]2(C)[C@@H]1CC(Nc1ccc(S(=O)(=O)Nc2cc(C)on2)cc1)C1=CCOC1=O (stereo not given in full) ?
**Result** -11% (active)

**Query** growth for COC(=O)c1ccc2c(c1)nc(-c1ccc(O)c(OC)c1)n2-c1cc(C(C)(C)C)[nH]n1 ?
**Result** 96.3% (inactive)

====

Measured growth, listed per entry for reference.
Test system: BT-549 breast
Test: NCI-60 one-dose screen, 48 h (100 = growth as untreated, 0 = no growth, -100 = all killed)
Settings: 10 µM unless noted
Compounds without any hit were thinned out: in the full panel of roughly 83,000, 20% have a hit.
Just the number in %, nothing appended.

Consider the following illustrative entries.
| molecule | valueReported |
| --- | --- |
| CCCCCCCC1(C)NC(=O)NC1=O (stereo not given) | 121 |
| O=C(/C=C/c1cc2ccccc2[nH]c1=O)c1ccc(Cl)cc1 | 29.4 |
| COc1cccc2c1C(=O)c1c(O)c3c(c(O)c1C2=O)C[C@@](O)(/C(C)=N/NC(=O)c1cccc([N+](=O)[O-])c1)C[C@@H]3OC1CC(N)C(O)C(C)O1 (stereo not given in full) | -14.9 |
| CC(C)c1nc(N(C)S(C)(=O)=O)nc(-c2ccc(F)cc2)c1/C=C/[C@@H](O)C[C@@H](O)CC(=O)O | 103 |

Next item in the queue.
**Query** What value of measured growth is listed for Cc1cc(C)n2nc(SCC(=O)Nc3sc4c(c3C(N)=O)CCC4)nc2n1 ?
**Result** 99.6

====

Test system: M14 melanoma
Test: NCI-60 one-dose screen, 48 h (100 = growth as untreated, 0 = no growth, -100 = all killed)
Settings: 10 µM unless noted
About 83,000 compounds went through this panel and 20% of them were active in at least one assay; those are over-represented in the sample as a whole. Activity calls are given as the source filed them. The calls were made as follows: active = growth percent below 10; inactive = the rest.
valueKind: growth

Sample answers from the record:
| compound | growth |
| --- | --- |
| O=C1c2nsnc2C(=O)c2c(F)c(F)c(F)c(F)c21 | -90.8% (active) |
| Clc1cccc(Cc2cn3cc(-c4ccccc4)nc3s2)c1 | 6.04% (active) |
| CN(C)c1ccc(/C=C\c2ccnc3ccccc23)cc1 | 83.9% (inactive) |

**Query** Report growth for Cc1cc(N2CCOCC2)nc(N2CCOCC2)n1 tested on M14 melanoma.
**Result** 105% (inactive)

**Query** What growth appears in the records for this compound with M14 melanoma? CN1C(=O)C(=Cc2cn(Cc3ccccc3)c3ccc(Br)cc23)C(=O)N(C)C1=O
**Result** 99.8% (inactive)

**Query** What measured growth is associated with COc1cc(C2=NN(C(C)=O)C(c3ccc(OC(C)=O)cc3OC(C)=O)O2)c(OC(C)=O)c2ccccc12 (stereo not drawn) on M14 melanoma?
**Result** 5.99% (active)

====

Tested on: HCC-2998 colon
Experiment: NCI-60 one-dose screen, 48 h (100 = growth as untreated, 0 = no growth, -100 = all killed)
Conditions: 10 µM unless noted
Protocol: Growth inhibition of the HCC-2998 human tumor cell line is measured as a screen for anti-cancer activity. Cells are grown in 96 well plates and exposed to the test compound for 48 hours. Compounds are tested at a single concentration, which is 10^-5 M for most compounds. The reported endpoint is percent growth (GI% or GIPRCNT), where numbers from 0 - 100% represent growth inhibition, and numbers from -100% - 0 represent cell death. For example, a value of 40 represents 60% growth inhibition. […]
Compounds without any hit were thinned out: in the full panel of roughly 83,000, 20% have a hit. Active and inactive are the calls of the source. The calls were made as follows: active = growth percent below 10; inactive = the rest.
valueKind: growth

| compound | valueKind | valueReported |
| --- | --- | --- |
| Cc1ccc(C=C2C(Cl)=C(Cl)C(Cl)=C2Cl)cc1 | growth | -94.8% (active) |

**Query** Entry O=c1[nH]c(Cl)nc2c1cnn2-c1ccccc1 : reported growth = ?
**Result** 91.2% (inactive)

**Query** Name the reported growth value associated with the compound CN(C)c1ccc2c(c1)/C(=N/O)c1ccccc1-2
**Result** 101% (inactive)

**Query** Endpoint output: growth of OC(CCC(O)(c1ccccc1)c1ccccc1)(c1ccccc1)c1ccccc1 . Value?
**Result** 83.4% (inactive)

**Query** Given the entry COc1cc(/C=C2\COc3ccc(O)cc3C2=O)cc(OC)c1 , report its measured growth.
**Result** 109% (inactive)

**Query** // query growth value for entry c1cncc(CNc2ccccc2-c2nnc(Nc3ccc4c(c3)OCO4)o2)c1
**Result** 20.1% (inactive)

====

Tested on: MDA-MB-231 breast
Assay: NCI-60 one-dose screen, 48 h (100 = growth as untreated, 0 = no growth, -100 = all killed)
Conditions: 10 µM unless noted
Experimental: Cells are grown in 96 well plates and exposed to the test compound for 48 hours. Compounds are tested at a single concentration, which is 10^-5 M for most compounds. The reported endpoint is percent growth (GI% or GIPRCNT), where numbers from 0 - 100% represent growth inhibition, and numbers from -100% - 0 represent cell death. For example, a value of 40 represents 60% growth inhibition. A value of 0 means no net growth occurred over the course of the experiment. […]
Compounds without any hit were thinned out: in the full panel of roughly 83,000, 20% have a hit.
growth reference
Numeric only. Scale: %

Solved entries:
| compound | valueKind | valueReported |
| --- | --- | --- |
| C[n+]1c2ccccc2c(Nc2ccc(N3CCCCC3)cc2)c2[nH]c3ccccc3c21 | growth | -91.1 |
| C/C(=C\CCc1ccsc1)CC/C=C(\C)CCCN1CCN(CCO)CC1 | growth | 27 |
| CN(CC(=O)Nc1nc2ccccc2[nH]1)S(=O)(=O)c1ccc(Cl)cc1 | growth | 99.6 |

**Query** Which growth is listed for CN(CC(=O)N(Cc1ccc(C2CCCCC2)cc1)c1ccc(C(=O)O)cc1)S(=O)(=O)c1c(F)c(F)c(F)c(F)c1F ?
**Result** -28.7

**Query** State the recorded growth for this entry: O=C(C(=O)N1CCOCC1)c1ccc(OC2OC(CO)C(O)C(O)C2O)cc1 (configuration not stated)
**Result** 107

====

Test system: NCI-H23 lung
Assay: NCI-60 one-dose screen, 48 h
Settings: 10 µM unless noted
This is part of a sample that, as a whole, favours compounds with a hit. Of some 83,000 tested, about 20% had one in any assay. Calls of active or inactive are those of the source. How the source made its calls: active means growth percent below 10; inactive means the rest.
Valid outcomes are listed here; reply with one: Y for active, N for inactive

See these solved cases before continuing.
| compound | groupLabel |
| --- | --- |
| O=C1OCC/C1=C\OCCCO/C=C1\CCOC1=O | N |
| CCS(=O)(=O)OCCCl | N |
| CCN(CC)CCCCNc1c2ccccc2[n+](C)c2c1[nH]c1ccccc12 | Y |
| Cn1c(N)c(N=O)c(=O)[nH]c1=O | N |
| O=[N+]([O-])c1ccc(Oc2cccc(C(F)(F)F)c2)c([N+](=O)[O-])c1 | N |

Alright, here's another compound for you.
**Query** Please share the test call associated with O=C(NCCc1ccccc1)C1CCC(=O)N1Cc1ccc(Br)cc1 (centres undefined) .
**Result** N
